Tested on: IGR-OV1
ASSAY: Cell line drug profiling, CellTiter Glo
Format: cell-based
CONDITION_PARAMETERS: Homo sapiens, IGROV-1; IGR-OV1, Ovarian, 72 h
QUANTITY_NAME: pIC50
Give bare numbers, as −log10 of the molar value.

Request: For the molecule shown here, "O=C(Nc1ccc(N2CCC(Cc3ccccc3)CC2)cc1C(=O)O)c1ccccc1Cl" , give the reported pIC50.
Response: 4.74

====

Tested on: OVCAR-8
ASSAY: Cell line drug profiling, CellTiter Glo
Format: cell-based
CONDITION_PARAMETERS: Homo sapiens; OVCAR-8, Ovarian, 72 h
QUANTITY_NAME: pIC50
Answers are plain numbers, as −log10 of the molar value.

Request: Look up pIC50 with OVCAR-8 for this compound: "O=C(Nc1ccc(N2CCC(Cc3ccccc3)CC2)cc1C(=O)O)c1ccccc1Cl"
Response: 4.73

Where these numbers come from: paper PMC12186255
